Values from PubChem BioAssay (NCI)

# Test system: NCI-H226 lung
# RUN_DESCRIPTION: NCI tumour cell line growth inhibition, 48 h
Kindly supply the reported TGI values for the records listed here.

Q: In one line, give reported TGI of the entry COC(C/C(=C/CO[Si](C(C)C)(C(C)C)C(C)C)C(=O)Nc1ccccc1I)OC .
A: 98.5 µM

Q: Assign TGI to the following record: CCOC(=O)C1=C(C)N(C)C(=S)NC1c1cccc(O)c1 (centres undefined)
A: > 100 µM

Q: Annotate the compound CC1(C)C=[N+]([O-])C(C)(C)N1 with its measured TGI.
A: > 100 µM

Q: Return the recorded TGI value; entry: Cc1cc(NC(=O)C(=O)Cc2cnc3ccccc3n2)c(S(=O)(=O)O)cc1Cl
A: > 100 µM

Q: Return value of TGI for input CN(C)c1ccc2nc3c(C(=O)O)cc(=O)c(O)c-3oc2c1 , no commentary.
A: > 100 µM

Q: Note down TGI recorded for O=C(O)c1ccccn1
A: > 100 µM

Q: For the compound COc1ccc(/C(Cl)=C(\C=O)c2ccc(OC)c(OC)c2)cc1OC , give its measured TGI value.
A: 99.9 µM

Q: Give TGI for the following compound: CC1(C)OC(=O)C(C)(C)OC1=O
A: > 100 µM

Q: Identify the reported TGI for the following entry. O=C(CCc1ccccc1)On1nnc2ccccc2c1=O
A: > 100 µM

----------
For each of the molecules below, state its TGI.
# Test system: HOP-62 NSCLC
# RUN_DESCRIPTION: NCI tumour cell line growth inhibition, 48 h

Q: Report its TGI with HOP-62 NSCLC as the test system: CCC(CC)C(=O)OC[n+]1cccc(-c2c(COC(=O)NC(C)C)c(COC(=O)NC(C)C)c3n2CCC3)c1
A: > 100 µM

Q: Provide TGI, tested on HOP-62 NSCLC, for O=C(O)c1cc(-c2ccccc2O)nc2ccccc12 .
A: > 100 µM

Q: Tell me its TGI on HOP-62 NSCLC: C=C1CC2(OC1=O)c1ccccc1C=Cc1ccccc12
A: 24.9 µM

Q: Provide TGI, tested on HOP-62 NSCLC, for COC1C=C(NCC2(CO)CCC2)NC(N)=N1 (stereo not given) .
A: > 100 µM

Q: Please look at CCOC(=O)CNC(=O)CCCn1c(=O)c2c3ccccc3n(C)c2n2nnc(-c3ccccc3)c12 and tell me its recorded TGI on HOP-62 NSCLC.
A: 17.7 µM

----------
# Test system: EKVX NSCLC
# RUN_DESCRIPTION: NCI tumour cell line growth inhibition, 48 h
MEASUREMENT_NAME: TGI

Q: Let me know recorded TGI for CC(C)C[C@H](NC(=O)CCc1ccccc1)B(O)O , thanks.
A: > 100 µM

Q: Give the measured TGI for COc1ccc(C2C(c3ccccc3)C(=O)N2c2cc(OC)c(OC)c(OC)c2)cc1I (stereo unspecified)
A: > 100 µM

Q: Retrieve TGI measured for O=C1C=CN(C2OC(CO)C(O)C2O)C(=O)C1 (stereo unspecified) and print it.
A: > 2500 µM

Q: Tell me measured TGI for CCOC(=O)N1c2ccccc2S(=O)(=O)c2ccccc21 please.
A: > 100 µM

Q: Return the recorded TGI value; entry: O=C(CCc1ccccc1)On1nnc2ccccc2c1=O
A: > 100 µM

Q: Kindly indicate its recorded TGI. Item: CN(C)c1ncnc2c1ncn2C1C=CC(COS(N)(=O)=O)C1 (stereo unspecified)
A: > 100 µM

Q: Please supply the value of reported TGI for the item COC1(OC)CC2C(=O)N(Cc3ccccc3)C1CC2S(=O)(=O)c1ccccc1 (stereo unspecified)
A: > 100 µM

Q: Name the recorded TGI of the compound listed here: Cc1ccc(S(=O)(=O)[N-]C2C(=O)c3ccccc3C(=O)C2[n+]2cccc(C(N)=O)c2)cc1 (stereo unspecified)
A: > 100 µM

Q: Let me know recorded TGI for COc1ccc2nc3cc([N+](=O)[O-])ccc3c(NNc3ccc(Cl)cc3)c2c1 , thanks.
A: 99 µM

Q: Answer with the recorded TGI of CC1=Nc2c([nH]c(=S)[nH]c2=O)NC(c2ccc(Cl)c(Cl)c2)C1 (stereo unspecified) only.
A: > 68.3 µM

Q: // fetch TGI given entry O=C1C(Cl)=C(Nc2cccc(C(F)(F)F)c2)C(=O)N1Cc1ccccc1Cl
A: 37 µM

Q: Identify TGI associated with the compound COc1cc(/C=C2\CC3C4CC=C5C[C@@H](N6CCCC6)CC[C@]5(C)C4CC[C@]3(C)[C@H]2OC(C)=O)ccc1OCCN1CCCCC1 (stereo partly specified)
A: 4.3 µM

Q: Please give measured TGI of the following entry: O=C(NCCCNC(=O)OCc1ccc2c(Br)cc(Br)c(O)c2n1)OCc1ccc2c(Br)cc(Br)c(O)c2n1
A: > 100 µM

Q: Read off the recorded TGI for NS(=O)(=O)c1ccc(NC(=O)CC(=O)Nc2ccc(S(N)(=O)=O)cc2)cc1
A: > 100 µM

Q: Given CCOC(=O)CNC(=O)CCCn1c(=O)c2c3ccccc3n(C)c2n2nnc(-c3ccccc3)c12 , respond with its TGI.
A: > 50 µM

Q: Give the value of TGI reported for the following: COc1ccc(/C(Cl)=C(\C=O)c2ccc(OC)c(OC)c2)cc1OC
A: > 100 µM

----------
# Tested on: NCI-H23 lung
# RUN_DESCRIPTION: NCI tumour cell line growth inhibition, 48 h
Kindly supply the reported TGI values for the records listed here.

Q: For the molecule C=C1C(=O)O[C@H]2[C@H]1[C@H](OC(=O)/C(C)=C\C)C[C@]1(CO1)[C@@H]1[C@H](OC(C)=O)C=C(C)[C@]21O , report TGI.
A: 53.2 µM

Q: Input C=C(C)[C@@H]1CC[C@@H](C)[C@](O)([C@@H]2C[C@@H]([C@H](COC(=O)c3ccccc3)OC(=O)c3ccccc3)OC2=O)C1 , output reported TGI.
A: > 100 µM

Q: Consider the molecule C[C@@H]1CC[C@H]2C(COC/C=C/COCC3=C(C(F)(F)F)O[C@@H]4O[C@@]5(C)CC[C@H]6[C@H](C)CC[C@@H]3[C@@]46OO5)=C(C(F)(F)F)O[C@@H]3O[C@@]4(C)CC[C@@H]1[C@]32OO4 . State its measured TGI.
A: 12.3 µM

----------
Give measured TGI for each item. Keep answers brief.
# Tested on: LOX IMVI melanoma
# RUN_DESCRIPTION: NCI tumour cell line growth inhibition, 48 h

Q: Quickly give me recorded TGI for COc1cc2nc(-c3ccc(-n4cncc4-c4ccc(N)cc4)cc3)sc2c(OC)c1OC
A: > 100 µM

Q: Quote TGI reported for O=C(CCc1ccccc1)On1nnc2ccccc2c1=O please.
A: > 100 µM

Q: Please report TGI for the following compound: C[C@@H]1C[C@@H](O)[C@@]2(O)C13CC(=O)OC(C3)[C@@H](C)[C@@]2(C)CO (stereo not given in full)
A: > 100 µM

Q: Indicate its recorded TGI; the compound in question is COc1ccc(CCNCc2cccc(OC)c2OC)cc1OC
A: > 100 µM

Q: Indicate the recorded TGI value for this compound: COc1ccc(OC)c(NC(=O)C(=O)Nn2c(=S)[nH]c3ccccc3c2=O)c1
A: > 100 µM

Q: Check the records and state TGI for C=CC[Se]C(=O)Cc1c(C)n(C(=O)c2ccc(Cl)cc2)c2ccc(OC)cc12
A: 3.34 µM

Q: Answer with the recorded TGI of COc1cc(/C=C2\CC3C4CC=C5C[C@@H](N6CCCC6)CC[C@]5(C)C4CC[C@]3(C)[C@H]2OC(C)=O)ccc1OCCN1CCCCC1 (stereo not given in full) only.
A: 2.57 µM

Q: Provide only the value of recorded TGI for C[n+]1cccc(/C=C/c2ccc3cccc(O)c3n2)c1
A: > 100 µM

Q: Supply recorded TGI for COC(=O)c1c2c(c(C)[n+]([O-])c1C)C(=O)C(NCc1cccc(OC)c1)=CC2=O here.
A: 6.86 µM

Q: Supply reported TGI belonging to this compound: Cc1ccc(S(=O)(=O)NC(=O)NCC(=O)NCC(=O)O)cc1
A: > 100 µM

----------
# System: A498 renal
# RUN_DESCRIPTION: NCI tumour cell line growth inhibition, 48 h
MEASUREMENT_NAME: TGI

Q: Return the recorded TGI value; entry: CC(=O)OCC1OC(n2c3c(c(-c4ccc(Cl)cc4)c(C#N)c2=S)C(=O)CC(C)(C)C3)C(OC(C)=O)C(OC(C)=O)C1OC(C)=O (centres undefined)
A: 87.9 µM

Q: Please indicate TGI recorded for CN(C)CCCSc1c2ccccc2nc2cc(NCC(=O)Nc3ccccc3-c3ccccc3NC(=O)CNc3ccc4c(SCCCN(C)C)c5ccccc5nc4c3)ccc12
A: > 100 µM

Q: Report TGI, nothing else, for this compound: O=C(CSCC(=O)N/N=C/c1cccc(OCc2ccccc2)c1)N/N=C/c1cccc(OCc2ccccc2)c1
A: > 69.7 µM

Q: Look up and report measured TGI for this entry: CN(C)c1nc(N(C)C)n2nc(-c3ccccc3[N+](=O)[O-])nc2n1
A: > 100 µM

Q: Name the recorded TGI of the item C=C(C)[C@@H]1CC[C@@H](C)[C@](O)([C@@H]2C[C@@H]([C@H](COC(=O)c3ccccc3)OC(=O)c3ccccc3)OC2=O)C1 in your answer.
A: > 100 µM

Q: State its TGI: C=CCNC(=O)/C(Cc1cc(Br)c(OC)c(Br)c1O)=N\O
A: 46.7 µM

Q: Return TGI (reported value) for this compound: CC1CCCN(CC(O)CN2CCCc3ccccc32)C1 (centres undefined)
A: > 100 µM

Q: Read off the recorded TGI for COc1ccc2nc3cc([N+](=O)[O-])ccc3c(NNc3ccc(Cl)cc3)c2c1
A: 0.221 µM

Q: Identify the reported TGI for the following entry. COc1cc2c(cc1OC)C1C(O)C(OC)C=C3CC[N+](C)(C2)C31 (centres undefined)
A: > 100 µM
